# assay: Single-dose PK and bioavailability of ZB716 in rats
# Assay type: in vivo
# assay context: female, Sprague Dawley, rat, plasma; single dose, PO 6 mg/kg/day, F
reported property: Cmax (ng/mL)
Expressed in ng/mL, but write only the number.

stdin: Can you share its Cmax? I mean this compound: C[C@]12CC[C@@H]3c4ccc(B(O)O)cc4C[C@@H](CCCCCCCCC[S+]([O-])CCCC(F)(F)C(F)(F)F)[C@H]3[C@@H]1CC[C@@H]2O (stereo partly shown)
stdout: 347

* * *

# assay: 7-day repeated-dose PK in rats
# Type: in vivo, Sprague Dawley rats
# assay context: male, Sprague Dawley, rat, plasma, po, 400 mg/kg/day, day 7, PO 400 mg/kg/day, M; read-out: Tmax (median)
reported property: Tmax (h)
Expressed in h, but write only the number.

stdin: Can you share its Tmax? I mean this compound: C[C@]12CC[C@@H]3c4ccc(B(O)O)cc4C[C@@H](CCCCCCCCC[S+]([O-])CCCC(F)(F)C(F)(F)F)[C@H]3[C@@H]1CC[C@@H]2O (stereo partly shown) [ZB716, fulvestrant-3-boronic acid]
stdout: 8
